Reference for the values: ChEMBL document CHEMBL1150338

SYSTEM TESTED: MRP2 (ABCC2) (Homo sapiens)
ASSAY OVERVIEW: in vitro
CONDITION INFO: probe estradiol-17-beta-glucuronide
Description: Effect on human MRP2-mediated estradiol-17-beta-glucuronide transport in Sf9 cells inverted membrane vesicles relative to control

>  <MOLECULE>
N=C(N)NC(=O)c1nc(Cl)c(N)nc1N [AMILORIDE]

>  <activity [%]>
82

$$$$
>  <MOLECULE>
CC(C(=O)O)c1ccc(-c2ccccc2)c(F)c1 (centres undefined) [FLURBIPROFEN]

>  <activity [%]>
108

$$$$
>  <MOLECULE>
CC(NCCC(c1ccccc1)c1ccccc1)c1ccccc1 (centres undefined) [FENDILINE]

>  <activity [%]>
5

$$$$
>  <MOLECULE>
CC[C@H]1OC(=O)[C@H](C)[C@@H](O[C@H]2C[C@@](C)(OC)[C@@H](O)[C@H](C)O2)[C@H](C)[C@@H](O[C@@H]2O[C@H](C)C[C@H](N(C)C)[C@H]2O)[C@](C)(O)C[C@@H](C)C(=O)[C@H](C)[C@@H](O)[C@]1(C)O [ERYTHROMYCIN]

>  <activity [%]>
89

$$$$

---

SYSTEM TESTED: MRP2 (ABCC2) (Homo sapiens)
ASSAY OVERVIEW: in vitro
CONDITION INFO: probe estradiol-17-beta-glucuronide
Label 1 for high-side activity (at or above 80%) and -1 for low-side activity (below it).

>  <COMPOUND>
C[N+](C)(C)C[C@H](O)CC(=O)[O-]

>  <GROUP LABEL>
1

$$$$
>  <COMPOUND>
C[n+]1cc2c3c(ccc2c2ccc4cc5c(cc4c21)OCO5)OCO3 [SANGUINARIUM CHLORIDE]

>  <GROUP LABEL>
-1

$$$$
>  <COMPOUND>
O=c1c(-c2ccc(O)cc2)coc2cc(O)cc(O)c12

>  <GROUP LABEL>
1

$$$$
>  <COMPOUND>
Nc1nc2c(c(=O)[nH]1)N(C=O)C(CNc1ccc(C(=O)N[C@@H](CCC(=O)O)C(=O)O)cc1)CN2 (stereo partly drawn)

>  <GROUP LABEL>
1

$$$$
>  <COMPOUND>
CC1COc2c(N3CCN(C)CC3)c(F)cc3c(=O)c(C(=O)O)cn1c23 (stereo not drawn)

>  <GROUP LABEL>
1

$$$$
>  <COMPOUND>
C[C@]12CC[C@H]3[C@@H](CCC4=CC(=O)CC[C@@]43C)[C@@H]1CC[C@@H]2O

>  <GROUP LABEL>
1

$$$$
>  <COMPOUND>
C#CC1(O)CC[C@H]2[C@@H]3CCc4cc(O)ccc4[C@H]3CC[C@@]21C (single isomer, unassigned)

>  <GROUP LABEL>
-1

$$$$
>  <COMPOUND>
CC(=O)[C@H]1CC[C@H]2[C@@H]3CCC4=CC(=O)CC[C@]4(C)[C@H]3CC[C@]12C

>  <GROUP LABEL>
1

$$$$
>  <COMPOUND>
CNC(=O)c1cccnc1 [NICOTINYL METHYLAMIDE]

>  <GROUP LABEL>
1

$$$$
>  <COMPOUND>
C[C@H](CCC(=O)O)[C@H]1CC[C@H]2[C@@H]3[C@H](O)C[C@@H]4C[C@H](O)CC[C@]4(C)[C@H]3CC[C@]12C

>  <GROUP LABEL>
1

$$$$
>  <COMPOUND>
CC(=O)Oc1ccc2c(c1)Oc1cc(OC(C)=O)ccc1C21OC(=O)c2cc(C(=O)O)ccc21

>  <GROUP LABEL>
-1

$$$$
>  <COMPOUND>
Cc1ccc(N(CC(=O)O)CC(=O)O)c(OCCOc2cc(-c3c4cc(Cl)c(=O)cc-4oc4cc(O)c(Cl)cc34)ccc2N(CC(=O)O)CC(=O)O)c1

>  <GROUP LABEL>
-1

$$$$

---

SYSTEM TESTED: MRP2 (ABCC2) (Homo sapiens)
ASSAY OVERVIEW: in vitro
CONDITION INFO: sf9
This section presents molecules with their documented activity values.
RECORDED ENDPOINT: activity (%)

>  <MOLECULE>
COc1cccc2c1C(=O)c1c(O)c3c(c(O)c1C2=O)C[C@@](O)(C(=O)CO)C[C@@H]3O[C@H]1C[C@H](N)[C@H](O)[C@H](C)O1

>  <RECORDED ENDPOINT>
activity

>  <TEST RESULT>
87

$$$$
>  <MOLECULE>
CC(C)NCC(O)c1ccc(NS(C)(=O)=O)cc1 (stereo unspecified)

>  <RECORDED ENDPOINT>
activity

>  <TEST RESULT>
96

$$$$
>  <MOLECULE>
COc1cc2ncnc(Nc3ccc(F)c(Cl)c3)c2cc1OCCCN1CCOCC1

>  <RECORDED ENDPOINT>
activity

>  <TEST RESULT>
74

$$$$
>  <MOLECULE>
COc1ccc2cc([C@H](C)C(=O)O)ccc2c1

>  <RECORDED ENDPOINT>
activity

>  <TEST RESULT>
92

$$$$
>  <MOLECULE>
O=C1CN(/N=C/c2ccc([N+](=O)[O-])o2)C(=O)N1

>  <RECORDED ENDPOINT>
activity

>  <TEST RESULT>
94

$$$$
>  <MOLECULE>
CN(C)C(=O)CCSC(SCCC(=O)O)c1cccc(/C=C/c2ccc3ccc(Cl)cc3n2)c1 (stereo unspecified)

>  <RECORDED ENDPOINT>
activity

>  <TEST RESULT>
9

$$$$

---

SYSTEM TESTED: MRP2 (ABCC2) (Homo sapiens, UniProt Q92887);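 further: Inside-out membrane vesicles from Sf9 insect cells expressing human MRP2, measuring uptake of the estradiol glucuronide substrate, expressed as percent of untreated control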
Sequence (Q92887 whole entry): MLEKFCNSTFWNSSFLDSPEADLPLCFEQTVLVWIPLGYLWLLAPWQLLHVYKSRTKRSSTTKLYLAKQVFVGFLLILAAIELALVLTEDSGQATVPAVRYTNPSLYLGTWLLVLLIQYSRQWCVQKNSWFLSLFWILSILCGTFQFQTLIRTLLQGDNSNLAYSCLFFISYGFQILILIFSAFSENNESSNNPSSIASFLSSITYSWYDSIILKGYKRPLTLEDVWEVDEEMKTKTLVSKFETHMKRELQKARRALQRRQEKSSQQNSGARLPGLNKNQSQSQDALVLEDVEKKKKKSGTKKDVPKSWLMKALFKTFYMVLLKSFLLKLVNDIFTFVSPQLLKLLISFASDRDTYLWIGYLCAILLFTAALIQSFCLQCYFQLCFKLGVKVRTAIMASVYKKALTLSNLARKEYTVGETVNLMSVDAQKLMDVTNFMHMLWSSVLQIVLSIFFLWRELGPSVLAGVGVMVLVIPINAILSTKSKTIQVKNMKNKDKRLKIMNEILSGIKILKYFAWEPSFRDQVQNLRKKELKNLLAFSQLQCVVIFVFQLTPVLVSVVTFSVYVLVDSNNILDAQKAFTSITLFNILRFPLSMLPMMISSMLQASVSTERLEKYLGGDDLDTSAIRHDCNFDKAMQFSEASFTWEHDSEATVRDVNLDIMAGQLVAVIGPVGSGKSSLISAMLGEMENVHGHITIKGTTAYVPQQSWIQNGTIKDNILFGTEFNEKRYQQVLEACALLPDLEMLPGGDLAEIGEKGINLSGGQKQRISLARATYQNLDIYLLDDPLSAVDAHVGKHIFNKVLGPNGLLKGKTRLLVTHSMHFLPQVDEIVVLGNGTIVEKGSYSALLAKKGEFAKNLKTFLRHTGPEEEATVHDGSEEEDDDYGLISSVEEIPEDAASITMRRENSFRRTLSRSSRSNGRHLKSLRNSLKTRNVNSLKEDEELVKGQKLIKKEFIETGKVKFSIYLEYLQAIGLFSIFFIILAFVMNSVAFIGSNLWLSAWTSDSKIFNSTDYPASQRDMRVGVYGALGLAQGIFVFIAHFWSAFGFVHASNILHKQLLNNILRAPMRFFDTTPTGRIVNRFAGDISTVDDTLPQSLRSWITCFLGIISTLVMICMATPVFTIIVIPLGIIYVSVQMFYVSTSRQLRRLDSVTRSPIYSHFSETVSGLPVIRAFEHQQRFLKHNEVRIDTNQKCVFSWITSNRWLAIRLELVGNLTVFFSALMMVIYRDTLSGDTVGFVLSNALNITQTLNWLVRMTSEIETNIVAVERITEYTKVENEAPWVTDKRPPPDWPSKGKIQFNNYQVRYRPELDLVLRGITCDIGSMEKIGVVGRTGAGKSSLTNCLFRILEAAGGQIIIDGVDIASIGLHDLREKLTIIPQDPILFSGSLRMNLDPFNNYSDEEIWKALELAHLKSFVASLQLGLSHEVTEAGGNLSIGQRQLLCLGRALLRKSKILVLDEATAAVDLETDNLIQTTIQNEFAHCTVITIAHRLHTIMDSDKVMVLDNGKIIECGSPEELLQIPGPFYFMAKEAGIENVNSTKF
ASSAY OVERVIEW: in vitro
CONDITION INFO: probe estradiol-17-beta-glucuronide
Structures can show the parent of a compound that is named as a salt.
Label 1.0 for high-side activity (at or above 90%) and 0.0 for low-side activity (below it).

>  <MOLECULE>
NS(=O)(=O)c1cc2c(cc1Cl)NCNS2(=O)=O [HYDROCHLOROTHIAZIDE]

>  <GROUP LABEL>
1.0

$$$$
>  <MOLECULE>
CNCCCN1c2ccccc2CCc2ccccc21

>  <GROUP LABEL>
0.0

$$$$
>  <MOLECULE>
CC(C)C(=O)Nc1ccc([N+](=O)[O-])c(C(F)(F)F)c1 [FLUTAMIDE]

>  <GROUP LABEL>
1.0

$$$$
>  <MOLECULE>
CC1=C(C(=O)O)N2C(=O)[C@@H](NC(=O)[C@H](N)c3ccc(O)cc3)[C@H]2SC1

>  <GROUP LABEL>
0.0

$$$$
>  <MOLECULE>
O=C(O)[C@H]1O[C@@H](Oc2cc3oc(-c4ccccc4)cc(=O)c3c(O)c2O)[C@H](O)[C@@H](O)[C@@H]1O

>  <GROUP LABEL>
0.0

$$$$
>  <MOLECULE>
Cc1ccc(NC(=O)c2ccc(CN3CCN(C)CC3)cc2)cc1Nc1nccc(-c2cccnc2)n1 [IMATINIB MESYLATE]

>  <GROUP LABEL>
0.0

$$$$
>  <MOLECULE>
O[C@](CCN1CCCC1)(c1ccccc1)C1CCCCC1

>  <GROUP LABEL>
0.0

$$$$
>  <MOLECULE>
CCCC(CCC)C(=O)O

>  <GROUP LABEL>
1.0

$$$$
>  <MOLECULE>
C[C@]12CC[C@@H]3c4ccc(O)cc4CC[C@H]3[C@@H]1CC[C@@H]2O

>  <GROUP LABEL>
1.0

$$$$
>  <MOLECULE>
O=C1C(CC[S+]([O-])c2ccccc2)C(=O)N(c2ccccc2)N1c1ccccc1 (centres undefined)

>  <GROUP LABEL>
1.0

$$$$
>  <MOLECULE>
COc1cc2c(c(OC)c1OC)-c1ccc(OC)c(=O)cc1[C@@H](NC(C)=O)CC2

>  <GROUP LABEL>
1.0

$$$$
>  <MOLECULE>
CC(C)[C@@]1(NC(=O)[C@@H]2C=C3c4cccc5[nH]cc(c45)C[C@H]3N(C)C2)O[C@@]2(O)[C@@H]3CCCN3C(=O)[C@H](Cc3ccccc3)N2C1=O

>  <GROUP LABEL>
0.0

$$$$
>  <MOLECULE>
CCOc1ccc(-c2nc3cc(-c4nc5cc(N6CCN(C)CC6)ccc5[nH]4)ccc3[nH]2)cc1

>  <GROUP LABEL>
0.0

$$$$
>  <MOLECULE>
CCC1(c2ccccc2)C(=O)NC(=O)NC1=O

>  <GROUP LABEL>
1.0

$$$$
>  <MOLECULE>
NC(=O)N1c2ccccc2C=Cc2ccccc21 [CARBAMAZEPINE]

>  <GROUP LABEL>
0.0

$$$$
>  <MOLECULE>
Nc1ccc(C(=O)NCC(=O)O)cc1

>  <GROUP LABEL>
0.0

$$$$
>  <MOLECULE>
CCCN(CCC)S(=O)(=O)c1ccc(C(=O)O)cc1

>  <GROUP LABEL>
1.0

$$$$
>  <MOLECULE>
CC[C@]1(O)C[C@@H]2CN(CCc3c([nH]c4ccccc34)[C@@](C(=O)OC)(c3cc4c(cc3OC)N(C)[C@H]3[C@@](O)(C(=O)OC)[C@H](OC(C)=O)[C@]5(CC)C=CCN6CC[C@]43[C@@H]65)C2)C1

>  <GROUP LABEL>
0.0

$$$$
>  <MOLECULE>
O=C(O)c1cc(/N=N/c2ccc(S(=O)(=O)Nc3ccccn3)cc2)ccc1O

>  <GROUP LABEL>
0.0

$$$$
>  <MOLECULE>
Cn1nnnc1SCC1=C(C(=O)O)N2C(=O)[C@@H](NC(=O)[C@H](O)c3ccccc3)[C@H]2SC1

>  <GROUP LABEL>
0.0

$$$$
>  <MOLECULE>
CC(C)N(CC[C@](C(N)=O)(c1ccccc1)c1ccccn1)C(C)C [(S)-DISOPYRAMIDE]

>  <GROUP LABEL>
1.0

$$$$
>  <MOLECULE>
CCOC(=O)C1=C(C)NC(C)=C(C(=O)OC)C1c1cccc([N+](=O)[O-])c1 (centres undefined)

>  <GROUP LABEL>
1.0

$$$$
>  <MOLECULE>
CC(C)[C@@H]1NC(=O)[C@H](CCCCN)NC(=O)[C@@H](Cc2c[nH]c3ccccc23)NC(=O)[C@H](Cc2ccc(O)cc2)NC(=O)[C@H](C)N(C)C(=O)[C@H](Cc2ccccc2)NC1=O [SEGLITIDE]

>  <GROUP LABEL>
1.0

$$$$
